Source of measurements: paper PMC3904705

STUDY_TARGET: DeUB-PEPC (in vitro deubiquitinated p107 homotetrameric PEPC of germinating sorghum seeds; CP21) (Sorghum bicolor, UniProt P29195)
Construct: p107 homotetramer; not phosphorylated at Ser7
Sequence (P29195 1-960): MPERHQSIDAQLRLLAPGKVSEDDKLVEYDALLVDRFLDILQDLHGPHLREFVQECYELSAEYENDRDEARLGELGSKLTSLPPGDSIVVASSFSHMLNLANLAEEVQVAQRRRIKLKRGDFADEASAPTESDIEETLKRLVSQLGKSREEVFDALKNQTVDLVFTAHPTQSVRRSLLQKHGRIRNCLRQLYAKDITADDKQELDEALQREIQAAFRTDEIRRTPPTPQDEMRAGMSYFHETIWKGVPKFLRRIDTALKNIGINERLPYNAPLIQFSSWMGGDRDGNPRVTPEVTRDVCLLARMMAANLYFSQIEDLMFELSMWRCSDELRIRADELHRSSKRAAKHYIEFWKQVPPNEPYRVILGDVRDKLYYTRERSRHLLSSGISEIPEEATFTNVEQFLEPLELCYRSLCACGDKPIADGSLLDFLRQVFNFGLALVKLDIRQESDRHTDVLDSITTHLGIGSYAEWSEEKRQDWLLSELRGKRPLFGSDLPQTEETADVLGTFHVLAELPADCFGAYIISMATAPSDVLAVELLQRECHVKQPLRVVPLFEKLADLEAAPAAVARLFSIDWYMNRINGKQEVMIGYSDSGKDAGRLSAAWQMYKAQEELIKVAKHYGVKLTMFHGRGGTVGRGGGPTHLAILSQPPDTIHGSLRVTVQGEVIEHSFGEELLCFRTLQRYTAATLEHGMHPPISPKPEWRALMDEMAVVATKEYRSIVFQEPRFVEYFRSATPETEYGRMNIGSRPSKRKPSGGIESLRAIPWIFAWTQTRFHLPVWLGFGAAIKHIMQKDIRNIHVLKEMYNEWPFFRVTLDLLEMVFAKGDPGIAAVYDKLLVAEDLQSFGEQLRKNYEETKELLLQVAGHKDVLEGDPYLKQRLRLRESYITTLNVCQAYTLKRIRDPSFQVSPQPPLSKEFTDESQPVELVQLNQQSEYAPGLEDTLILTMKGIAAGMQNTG
ASSAY_REMARKS: biochemical
Set-up: PEPC activity with 2 mM metabolite at subsaturating 0.1 mM PEP, as per cent of control
CONDITION_NOTES: pH 8.0, 0.1 mM PEP; read-out: % of control remaining
Procedure: The impact of various metabolite effectors (2mM each) on the activity of the purified, monoubiquitinated heterotetrameric sorghum seed PEPC (UB-PEPC) versus the in vitro deubiquitinated homotetrameric enzyme (deUB-PEPC) was assessed using suboptimal assay conditions (0.1mM PEP, pH 7.3 and 8.0). With the exception of L-malate, monoubiquitination of germinating sorghum seed PEPC (CP21) exerted little to no influence in the response to the metabolites tested (Supplementary Table S2 at JXB online). […]
VALUE_TYPE: remaining activity at 2000 µM (%)
# value in %; strip the unit string

O=C(O)CC(O)C(=O)O (stereo not shown) [Malate]    93

Next up:
Input: Tell us which remaining activity at 2000 µM value is on record for N[C@@H](CC(=O)O)C(=O)O [Aspartate]
Output: 109
